# Test name: qHTS Assay for Small Molecule Inhibitors of Mitochondrial Division or Activators of Mitochondrial Fusion; further: nearly all actives have a fitted effect of over 45% in size
# Details: S. cerevisiae fusion-defective mutant growth rescue, CellTiterGlo 48 h; series mostly up to 46.1 µM
The whole screen tested about 320,000 compounds, of which about 740 (0.23%) were called active. Not shown: some 2% with an inconclusive outcome. The call rests on the fitted dose curve; in most records, active means well fitted activation curve with a large enough effect; inconclusive means small, poorly fitted or top-dose-only effect; inactive means no such curve, though single readings can be large or run the other way. The sample as a whole holds a higher share of actives than the screen did.
Write down one outcome, taken from True (active), False (inactive)

Consider the worked cases shown below.
>  <Molecule>
O=C(COC(=O)c1ccccc1NC(=O)c1ccco1)Nc1ccc2c(c1)OC(F)(F)O2

>  <Classification>
False

$$$$
>  <Molecule>
O=C(CO/N=C/c1ccc(OC(F)F)cc1)NCc1ccc(F)cc1

>  <Classification>
True

$$$$
>  <Molecule>
CC1CCCCC1NC(=O)CO/N=C/c1ccc(OC(F)F)cc1 (stereo not given)

>  <Classification>
False

$$$$
>  <Molecule>
CCCC1=Nc2cc(C(=O)NCc3ccco3)ccc2Sc2ccccc21

>  <Classification>
True

$$$$

Inquiry: Outcome? COc1cccc(C(=O)NCCS(=O)(=O)NCC2CCCO2)c1 (stereo not given)
Reply text: False
